Molecular target: UniProt:E9AFX2
Sequence (E9AFX2 whole entry): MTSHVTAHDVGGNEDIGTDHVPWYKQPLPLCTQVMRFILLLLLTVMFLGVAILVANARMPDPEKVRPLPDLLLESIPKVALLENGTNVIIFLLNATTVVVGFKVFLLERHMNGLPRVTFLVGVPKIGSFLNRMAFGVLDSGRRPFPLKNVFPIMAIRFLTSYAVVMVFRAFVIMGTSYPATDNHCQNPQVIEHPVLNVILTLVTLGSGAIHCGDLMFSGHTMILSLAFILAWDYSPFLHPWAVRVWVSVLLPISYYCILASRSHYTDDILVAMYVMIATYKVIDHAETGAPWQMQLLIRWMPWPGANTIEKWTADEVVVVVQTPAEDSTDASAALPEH
Experiment: biochemical
Assay type: biochemical
readout_kind: 20mM inhibition LmjIPCS

The reported value for O=c1c2ccccc2[se]n1-c1ccccc1 [EBSELEN] in terms of 20mM inhibition LmjIPCS is 42%

// recorded 20mM inhibition LmjIPCS for CN1[C@H]2C[C@H](OC(=O)[C@H](CO)c3ccccc3)C[C@@H]1[C@@H](O)C2 [ANISODAMINE] : 16%

20mM inhibition LmjIPCS for C[C@H]1C[C@H]2[C@@H]3CCC4=CC(=O)C=C[C@]4(C)[C@@]3(F)[C@@H](O)C[C@]2(C)[C@@]1(O)C(=O)CO [BETAMETHASONE] is 45%

# 20mM inhibition LmjIPCS of CCOC(=O)C1=C(COCCN)NC(C)=C(C(=O)OC)C1c1ccccc1Cl (centres unmarked) [amlodipine 2, amlodipine, reference compound] = 80%

// 20mM inhibition LmjIPCS lookup, molecule = C[C@]12CCC3c4ccc(OC(=O)CCC(=O)O)cc4CCC3C1CCC2=O (some centres unmarked) [ESTRONE HEMISUCCINATE] , result: 12%

Record CCN(CC)CCCC(C)Nc1c2ccc(Cl)cc2nc2ccc(OC)cc12 (centres unmarked) [QUINACRINE] . Reported 20mM inhibition LmjIPCS: 59%

Record C[C@@H](N)[C@@H](O)c1ccccc1 [1S,2R-PHENYLPROPANOLAMINE] , field 20mM inhibition LmjIPCS: 19%

The reported value for CC1=C(C(=O)O)N2C(=O)[C@@H](NC(=O)[C@H](N)C3=CCC=CC3)[C@H]2SC1 [CEPHRADINE] in terms of 20mM inhibition LmjIPCS is 40%
